Just for reference, paper PMC8662641 is where these values come from.

Could you please report measured FI (BTK-1h)/FI (BTK-1h+Inhibitor) at 620 nm for the items listed next?
# Tested On: BTK-1h (Homo sapiens)
# Construct: The BTK kinase domain was diluted to 2 μM in the buffer, and 2 μM 1h was added; made in house
# Sequence (Q06187 402-655): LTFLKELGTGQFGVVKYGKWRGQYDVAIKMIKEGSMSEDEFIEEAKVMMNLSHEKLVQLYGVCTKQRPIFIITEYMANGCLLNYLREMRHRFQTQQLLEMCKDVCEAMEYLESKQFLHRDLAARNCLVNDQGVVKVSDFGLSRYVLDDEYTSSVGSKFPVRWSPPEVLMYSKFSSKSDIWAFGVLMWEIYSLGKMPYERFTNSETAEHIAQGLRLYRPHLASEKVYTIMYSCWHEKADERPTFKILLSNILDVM
# Test: High-throughput screening with 1h-labeled BTK
# Type: binding
# Setup Conditions: Dataset S2A; 200 μM compound, BTK-1h, 32 °C, 10 min
Quick one: just the number, no unit, thanks!

Output FI (BTK-1h)/FI (BTK-1h+Inhibitor) at 620 nm of "CN1c2ccccc2C(=O)Nc2cnc(Nc3ccc(N4CCC(O)CC4)cc3)nc21"
1.194

Output FI (BTK-1h)/FI (BTK-1h+Inhibitor) at 620 nm of "O=C(Nc1c[nH]nc1-c1nc2ccc(CN3CCOCC3)cc2[nH]1)NC1CC1"
1.798

Output FI (BTK-1h)/FI (BTK-1h+Inhibitor) at 620 nm of "O=C(O)CSc1cc(NS(=O)(=O)c2ccc(Br)cc2)c2ccccc2c1O"
0.9002

Output FI (BTK-1h)/FI (BTK-1h+Inhibitor) at 620 nm of "Cc1[nH]c(/C=C2\C(=O)Nc3ccccc32)c(C)c1CCC(=O)O"
1.036

Output FI (BTK-1h)/FI (BTK-1h+Inhibitor) at 620 nm of "Oc1ccc(Nc2nc(-c3ccc(Cl)cc3)cs2)cc1"
1.009

Output FI (BTK-1h)/FI (BTK-1h+Inhibitor) at 620 nm of Cc1nc(Nc2ccc(F)cc2)nc(N2CCc3ccccc3C2C)c1C.Cl (stereo not shown)
1.02

Output FI (BTK-1h)/FI (BTK-1h+Inhibitor) at 620 nm of "COc1cc(/C=C/C(=O)CC(=O)/C=C/c2ccc(O)cc2)ccc1O"
0.9621

Output FI (BTK-1h)/FI (BTK-1h+Inhibitor) at 620 nm of "Cc1nc(Nc2n[nH]c3c2CN(C(=O)N[C@H](CN(C)C)c2ccccc2)C3(C)C)c2sccc2n1"
1.0756

Output FI (BTK-1h)/FI (BTK-1h+Inhibitor) at 620 nm of "Cn1cc(-c2cc(Oc3cc(F)c(NC(=O)C4(C(=O)Nc5ccccc5)CC4)cc3F)ccn2)cn1"
1.092

Output FI (BTK-1h)/FI (BTK-1h+Inhibitor) at 620 nm of "C=CC(=O)Nc1cccc(Oc2nc(Nc3ccc(N4CCN(C)CC4)cc3OC)ncc2Cl)c1"
1.038

Output FI (BTK-1h)/FI (BTK-1h+Inhibitor) at 620 nm of CC1=C(C(=O)OC(C)C)C(c2cccc([N+](=O)[O-])c2)C(C(=O)OC2CN(C(c3ccccc3)c3ccccc3)C2)=C(N)N1 (stereo not shown)
1.0184

Output FI (BTK-1h)/FI (BTK-1h+Inhibitor) at 620 nm of "C=CC(=O)N1CCN(C(=O)CNc2cc(I)c(Cl)cc2O)CC1"
1.004

Output FI (BTK-1h)/FI (BTK-1h+Inhibitor) at 620 nm of "COc1c(O)c(C)cc2c1C(=O)c1c(O)cccc1C2=O"
1.022

Output FI (BTK-1h)/FI (BTK-1h+Inhibitor) at 620 nm of "CC(C)N1CCN(Cc2cnc(-c3cc(-c4cccc5[nH]ccc45)cc4[nH]ncc34)o2)CC1"
1.042

Output FI (BTK-1h)/FI (BTK-1h+Inhibitor) at 620 nm of "O=C1CC(=O)c2c(Cl)c(Cl)c(Cl)c(Cl)c21"
0.9352

Output FI (BTK-1h)/FI (BTK-1h+Inhibitor) at 620 nm of "C=CC(=O)Nc1ccc2ncnc(Nc3ccc(OCc4cccc(F)c4)c(Cl)c3)c2c1.Cc1ccc(S(=O)(=O)O)cc1"
1.039
